Test system: HS 578T breast
method_description: NCI tumour cell line growth inhibition, 48 h
endpoint_name: TGI

// solved cases for TGI follow
CC1(C)SC2C(NC(=O)Cc3ccccc3)C(=O)N2C1C(=O)O (centres undefined)
> 100 µM
COc1cc(-c2cc(-c3nc4ccccc4[nH]3)[nH]n2)cc(OC)c1OC
> 100 µM
OCCCN(CCc1ccc(Cl)c(Cl)c1)CCN1CCCC1
> 100 µM

Now for another entry.
Query block: Recorded TGI for COC[C@H]1OC(=O)c2coc3c2[C@@]1(C)C1=C(C3=O)[C@@H]2CCC(=O)[C@@]2(C)C[C@H]1OC(C)=O with HS 578T breast, please?
Result block: 6.9 µM

====

Test system: SF-539 CNS
method_description: NCI tumour cell line growth inhibition, 48 h
endpoint_name: TGI (µM)
Write down the numeric answer in µM and omit the unit.

CC(=O)O[C@@H]1CC(C)C2CC2C2=C(C(O)OC2O)[C@@H]1C(C)CCC=C(C)C (stereo partly specified)
34.2
Cn1c2ccccc2c2nnc(N/N=C/c3ccccn3)nc21
0.854

Now for another entry.
Query block: Give its TGI value. Item: CCc1oc2ccccc2c1C(=O)c1cc(Br)c(O)c(Br)c1
Result block: 32.9

====

Test system: KM20L2 colon
method_description: NCI tumour cell line growth inhibition, 48 h
# reported TGI; entries follow

O=C(O)c1ccc([N+](=O)[O-])c2c(=O)c3ccccc3[nH]c12
> 100 µM
COC1CC(OS(=O)(=O)c2ccc(C)cc2)C(OS(=O)(=O)c2ccc(C)cc2)C(COS(=O)(=O)c2ccc(C)cc2)O1 (stereo not given)
30.9 µM
COC1=C(C(=O)OC(C)(C)C)[C@]2(C)C(C(=O)OC(C)(C)C)C(OC)=C(C(=O)OC(C)(C)C)[C@]2(C)C1C(=O)OC(C)(C)C (stereo not given in full)
> 100 µM
CC1OC(OC2C(Oc3cc(O)c4c(=O)cc(-c5ccc(O)cc5)oc4c3)OC(CO)C(O)C2O)C(O)C(O)C1O (stereo not given)
> 100 µM

Now for another entry.
Query block: Give its TGI value. Item: CN(C)CCCn1c2c3ccccc3ccc2c2oc(=O)c3ccccc3c21
Result block: 2.78 µM

====

# reported TGI; entries follow
System: NCI/ADR-RES ovarian
method_description: NCI tumour cell line growth inhibition, 48 h
Write down the numeric answer in µM and omit the unit.

COc1cccc(/C=C/C(=O)c2cc3c(N)c(C(=O)Nc4cccc(Cl)c4C)sc3nc2C)c1
3.08
c1ccc2[nH]c(-c3ccc(OCCCCCOc4ccc(-c5nc6ccccc6[nH]5)cc4)cc3)nc2c1
7.2
C#CC[C@H](c1nc2cc(Cl)ccc2c(=O)n1Nc1ccccc1)N(CCCN)C(=O)c1cccc(Cl)c1F
30

Query block: Give its TGI value. Item: O=[N+]([O-])c1cc(Br)cc2c1[nH]c1ccc(Br)cc12
Result block: 62.7

====

System: COLO 205 colon
method_description: NCI tumour cell line growth inhibition, 48 h
endpoint_name: TGI

// solved cases for TGI follow
CC(C)(C)OC(=O)/C=C/C(=O)O/C=C/[N+](=O)[O-]
> 100 µM
CNC=O
> 10000 µM
CCC(C)/C=C(C)/C=C/C(=O)c1c(O)c(-c2ccc(O)cc2)c[nH]c1=O (configuration not stated)
19.5 µM
CCOC(=O)NNC1(SC)NC(=O)c2c(cc(Cl)oc2=O)O1 (configuration not stated)
25.9 µM
N#Cc1nc(Cc2ccccc2)oc1N
> 100 µM
Cn1c2ccccc2c2nnc(N/N=C/c3ccccn3)nc21
18.5 µM

Query block: Give its TGI value. Item: C=CCN=C1N=C(CC(=O)OCC)CS1
Result block: > 100 µM

Query block: Item: COc1cc(-c2cn(-c3ccc(Cl)cc3)c(=O)[nH]2)cc(OC)c1OC
Result block: > 100 µM

Query block: Item: Cc1ccc(C2=Nc3ccccc3NC(=O)C2)cc1
Result block: > 100 µM

Query block: Item: COC(=O)CC1(O)C(C=C(C)C)C(C(=O)OC)C(=O)C(C(=O)OC)C1C(=O)OC (configuration not stated)
Result block: > 100 µM

Query block: Item: CC(=O)Oc1cccc2c1C(=O)C(Br)(Br)CCC2
Result block: 17.2 µM

Query block: Item: CCOc1cc2ncc(C#N)c(Nc3ccc(F)c(Cl)c3)c2cc1NC(=O)/C=C/CN(C)C
Result block: 2.83 µM
